# MEASUREMENT TARGET: Metabotropic glutamate receptor 1 (Homo sapiens)
# Sequence (Q13255 whole entry): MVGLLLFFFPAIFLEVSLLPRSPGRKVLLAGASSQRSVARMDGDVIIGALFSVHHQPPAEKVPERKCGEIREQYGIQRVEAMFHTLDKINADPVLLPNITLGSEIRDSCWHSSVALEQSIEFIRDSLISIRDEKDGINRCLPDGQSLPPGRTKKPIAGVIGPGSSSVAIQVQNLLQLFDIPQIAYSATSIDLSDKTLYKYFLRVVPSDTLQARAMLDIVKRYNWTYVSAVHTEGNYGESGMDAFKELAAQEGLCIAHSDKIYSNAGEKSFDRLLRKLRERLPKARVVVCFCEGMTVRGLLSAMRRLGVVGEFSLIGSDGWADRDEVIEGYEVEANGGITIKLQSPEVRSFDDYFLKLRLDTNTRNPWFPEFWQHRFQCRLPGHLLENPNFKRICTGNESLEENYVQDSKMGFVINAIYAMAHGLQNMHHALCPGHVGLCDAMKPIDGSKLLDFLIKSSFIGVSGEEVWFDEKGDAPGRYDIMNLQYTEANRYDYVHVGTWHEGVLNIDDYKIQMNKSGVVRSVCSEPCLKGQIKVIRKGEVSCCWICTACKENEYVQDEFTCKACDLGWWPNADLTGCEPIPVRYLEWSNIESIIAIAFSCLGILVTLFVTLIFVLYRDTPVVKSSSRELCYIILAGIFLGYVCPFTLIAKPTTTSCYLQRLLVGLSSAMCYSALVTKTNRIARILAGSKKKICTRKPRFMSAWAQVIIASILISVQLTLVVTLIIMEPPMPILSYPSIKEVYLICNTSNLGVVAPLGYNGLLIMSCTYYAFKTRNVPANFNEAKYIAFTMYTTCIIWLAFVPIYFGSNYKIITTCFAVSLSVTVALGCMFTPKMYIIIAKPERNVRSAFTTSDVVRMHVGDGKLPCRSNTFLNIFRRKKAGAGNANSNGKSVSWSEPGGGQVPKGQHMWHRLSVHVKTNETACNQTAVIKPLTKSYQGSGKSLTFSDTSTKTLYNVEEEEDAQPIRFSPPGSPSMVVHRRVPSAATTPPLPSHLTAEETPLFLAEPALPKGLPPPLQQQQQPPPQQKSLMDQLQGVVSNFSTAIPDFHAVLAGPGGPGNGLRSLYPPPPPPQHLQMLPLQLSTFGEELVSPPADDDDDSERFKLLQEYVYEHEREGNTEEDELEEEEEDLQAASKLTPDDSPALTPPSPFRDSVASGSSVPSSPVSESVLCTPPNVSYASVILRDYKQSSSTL
# TEST DESCRIPTION: Antagonist activity at human mGluR1 expressed in CHO cells assessed as calcium flux by FLIPR assay
MEASURED ENDPOINT: log10 IC50 (log10 of the value in µM)
Friendly reminder: values = log10 of IC50, unit µM.

# annotated cases, reported log10 IC50 shown
CC(C)(C)OC(=O)N1CC=C(c2cn(-c3ccccc3F)nn2)CC1 | -2.20
CC(C)OC(=O)N1CC=C(c2cn(-c3cccnc3F)nn2)CC1 | -1.41
COc1ccccc1-n1cc(C2=CCN(C(=O)OC(C)(C)C)CC2)nn1 | -0.23

input: Fill in the blank: the reported log10 IC50 of CC(C)(C)CC(=O)N1CC=C(c2cn(-c3ccccc3F)nn2)CC1 is ____.
output: -0.92

input: Form field: reported log10 IC50 of CC(C)(C)OC(=O)N1CC=C(c2cn(-c3ccccn3)nn2)CC1
output: -1.31

input: Fill blank: measured log10 IC50 of the molecule Cc1c(C2=CCN(C(=O)OC(C)C)CC2)nnn1-c1cccnc1F is ____.
output: -2.14

* * *

# TEST DESCRIPTION: Inhibition of kainate receptor
MEASURED ENDPOINT: IC50

input: Item Cc1c(C2=CCN(C(=O)N(C)C(C)C)CC2)nnn1-c1cccnc1F has what recorded IC50?
output: > 10 µM

* * *

# TEST DESCRIPTION: Inhibition of AMPA receptor
pIC50: −log10 of the molar value.
MEASURED ENDPOINT: pIC50

input: Would you kindly share the measured pIC50 for Cc1c(C2=CCN(C(=O)N(C)C(C)C)CC2)nnn1-c1cccnc1F ?
output: < 5.00

* * *

# TEST DESCRIPTION: Metabolic stability in mouse liver microsomes at 1 uM after 30 mins
# Assay type: ADME, Microsome
# RUN CONDITIONS: read-out: Stability
MEASURED ENDPOINT: remaining at 0.5 h, 1 µM (%)
Reply with just the number (in %).

input: Given Cc1c(C2=CCN(C(=O)N(C)C(C)C)CC2)nnn1-c1cccnc1F , state its recorded remaining at 0.5 h, 1 µM.
output: 27

input: Quick one: remaining at 0.5 h, 1 µM for Cc1c(C2=CCN(C(=O)OC(C)(C)C)CC2)nnn1-c1cccnc1F ?
output: 2

* * *

Item-by-item account of remaining at 0.5 h, 1 µM
# TEST DESCRIPTION: Metabolic stability in human liver microsomes at 1 uM after 30 mins
# Assay type: ADME, Microsome
# RUN CONDITIONS: read-out: Stability
Give just the number in %; leave the unit off.

Would you please look over these solved cases?
Cc1c(C2=CCN(C(=O)OC(C)(C)C)CC2)nnn1-c1cccnc1F | 90
Cc1c(C2=CCN(C(=O)N(C)C(C)C)CC2)nnn1-c1cccnc1F | 85

input: Need remaining at 0.5 h, 1 µM of CC(C)(C)OC(=O)N1CC=C(c2cn(-c3ccccc3)nn2)CC1 , thanks.
output: 57

* * *

# TEST DESCRIPTION: Inhibition of NMDA receptor
pIC50: −log10 of the molar value.
MEASURED ENDPOINT: pIC50

input: I have this molecule here, Cc1c(C2=CCN(C(=O)N(C)C(C)C)CC2)nnn1-c1cccnc1F , and I need its recorded pIC50.
output: < 5.00
